- SYSTEM_NAME: GDP-bound KRAS protein (aa 1-169), containing both G12C and C118A amino acid substitutions (Homo sapiens, UniProt P01116, C118A/G12C)
- Sequence (P01116 1-169 isoform P01116-2 G12C/C118A): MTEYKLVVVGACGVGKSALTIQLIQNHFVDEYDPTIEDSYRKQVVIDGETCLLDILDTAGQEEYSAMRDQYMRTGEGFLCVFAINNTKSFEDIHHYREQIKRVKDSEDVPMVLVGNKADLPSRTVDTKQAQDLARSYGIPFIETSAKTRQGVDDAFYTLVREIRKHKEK
- ASSAY_REMARKS: Coupled nucleotide exchange assay (SOS-mediated, AlphaScreen)
- Type: biochemical
- EXPERIMENTAL_CONDITIONS: 5 min compound pre-incubation
ENDPOINT: Coupled exchange IC50 (5 min)

{"columns": ["COMPOUND", "RESULT"],
 "data": [
  ["C=CC(=O)N1CCN(c2nc(=O)n(-c3c(C)cc(CO)cc3C(C)C)c3nc(-c4ccccc4F)c(Cl)cc23)[C@@H](C)C1 [80-2]", "0.11 | nda μM"],
  ["C=CC(=O)N1CCN(c2nc(=O)n(-c3c(C)ccnc3N(C)C)c3nc(-c4ccccc4F)c(Cl)cc23)[C@@H](C)C1 [Example 55-7]", "0.806 | nda μM"],
  ["C=CC(=O)N1CCN(c2nc(=O)n(-c3c(CC)cccc3CC)c3nc(N4CCC(C(C)(C)C)C4)c(Cl)cc23)[C@@H](C)C1 (stereo partly drawn) [Example 66-21]", "33 | nda μM"],
  ["C=CC(=O)N1CCN(c2nc(=O)n(-c3cncnc3C3(C)CC3)c3nc(-c4ccccc4F)c(Cl)cc23)[C@@H](C)C1 [Example 54-54]", "0.377 | nda μM"],
  ["C=CC(=O)N1CCN(c2nc(=O)n(-c3c(Cl)ncnc3C(C)C)c3nc(-c4ccccc4F)c(Cl)cc23)[C@@H](C)C1 [Example 133]", "0.119 | nda μM"],
  ["C=CC(=O)N1CCN(c2nc(=O)n(-c3ncccc3CC(C)C)c3nc(-c4ccccc4F)c(Cl)cc23)[C@@H](C)C1 [Example 54-102]", "0.161 | nda μM"]
]}

---

- SYSTEM_NAME: GDP-bound KRAS protein (aa 1-169), containing both G12C and C118A amino acid substitutions (Homo sapiens, UniProt P01116, C118A/G12C)
- ASSAY_REMARKS: Coupled nucleotide exchange assay (SOS-mediated, AlphaScreen)
- Type: biochemical
- EXPERIMENTAL_CONDITIONS: 5 min compound pre-incubation
Listing of entries alongside the reported Coupled exchange IC50 (5 min).

{"columns": ["COMPOUND", "Coupled exchange IC50 (5 min)"],
 "data": [
  ["C=CC(=O)N1CCN(c2nc(=O)n(CC3(C(F)(F)F)CC3)c3nc(-c4c(O)cccc4F)c(Cl)cc23)[C@@H](C)C1 [Example 54-5]", "0.445 | nda μM"],
  ["C=CC(=O)N1CCN(c2nc(=O)n(-c3c(C)cc(C(=O)OC)cc3C(C)C)c3nc(-c4ccccc4F)c(Cl)cc23)[C@@H](C)C1 [Example 156]", "0.057 | nda μM"],
  ["C=CC(=O)N1CCN(c2nc(=O)n(-c3c(C)noc3C(C)C)c3nc(-c4ccc(F)cc4F)c(Cl)cc23)[C@@H](C)C1 [Example 55-12]", "0.583 | nda μM"]
]}

---

- SYSTEM_NAME: GDP-bound KRAS protein (aa 1-169), containing both G12C and C118A amino acid substitutions (Homo sapiens, UniProt P01116, C118A/G12C)
- ASSAY_REMARKS: Coupled nucleotide exchange assay (SOS-mediated, AlphaScreen)
- EXPERIMENTAL_CONDITIONS: read-out: Coupled exchange IC50 (5 min); 5 min compound pre-incubation
Decide using IC50 alone. Strictly below 200 nM: Fulfilled. Equal to or above 200 nM: Not fulfilled.

{"columns": ["MOLECULE", "CLASS_LABEL"],
 "data": [
  ["C=CC(=O)N1CCN(c2nc(=O)n(-c3ncncc3C(C)C)c3nc(-c4ccccc4F)c(Cl)cc23)[C@@H](C)C1 [Example 99]", "Not fulfilled"],
  ["C=CC(=O)N1CCN(c2nc(=O)n(-c3c(C)cccc3C(C)C)c3nc(Cl)c(Cl)cc23)[C@@H](C)C1 (atropisomer, axis not shown; (M)) [Example 112]", "Not fulfilled"],
  ["C=CC(=O)N1CCN(c2nc(=O)n(-c3c(C)ccnc3C(C)C)c3nc(-c4c(N)cccc4F)c(Cl)cc23)[C@@H](C)C1 (atropisomer, axis not shown; (M)) [Example 73-1]", "Fulfilled"],
  ["C=CC(=O)N1CCN(c2nc(=O)n(-c3ncccc3C(C)C)c3nc(-c4c(O)cccc4F)c(Cl)cc23)[C@@H](C)C1 [Example 54-57]", "Fulfilled"],
  ["C=CC(=O)N1CCN(c2nc(=O)n(-c3ccnn3C(C)C)c3nc(-c4c(O)cccc4F)c(Cl)cc23)[C@@H](C)C1 [Example 54-25]", "Fulfilled"],
  ["C=CC(=O)N1CCN(c2nc(=O)n(-c3c(C(C)C)ncc(O)c3C)c3nc(-c4ccccc4F)c(Cl)cc23)[C@@H](C)C1 (atropisomer, axis not shown; (P)) [Example 83-1]", "Not fulfilled"]
]}

---

- SYSTEM_NAME: GDP-bound KRAS protein (aa 1-169), containing both G12C and C118A amino acid substitutions (Homo sapiens, UniProt P01116, C118A/G12C)
- ASSAY_REMARKS: Coupled nucleotide exchange assay (SOS-mediated, AlphaScreen)
- Assay type: biochemical
- EXPERIMENTAL_CONDITIONS: 5 min compound pre-incubation
ENDPOINT: Coupled exchange IC50 (5 min)

{"columns": ["MOLECULE", "ENDPOINT", "RESULT"],
 "data": [
  ["C=CC(=O)N1CCN(c2nc(=O)n(-c3c(OC)cccc3C(C)C)c3nc(-c4ccccc4F)c(Cl)cc23)[C@@H](C)C1 [Example 60-19]", "Coupled exchange IC50 (5 min)", "0.137 | nda μM"],
  ["C=CC(=O)N1CCN(c2nc(=O)n(-c3scnc3C(C)C)c3nc(-c4ccccc4F)c(F)cc23)[C@@H](C)C1 [Example 57-12]", "Coupled exchange IC50 (5 min)", "0.472 | nda μM"],
  ["C=CC(=O)N1CCN(c2nc(=O)n(-c3ncccc3C(C)C)c3nc(-c4ccccc4F)c(Cl)cc23)[C@@H](C)C1 [Example 60-28]", "Coupled exchange IC50 (5 min)", "0.101 | nda μM"],
  ["C=CC(=O)N1CCN(c2nc(=O)n(-c3c(C)ccnc3C(C)C)c3nc(-c4ccccc4F)c(F)cc23)[C@@H](C)C1 [Example 58-4]", "Coupled exchange IC50 (5 min)", "0.395 | nda μM"],
  ["C=CC(=O)N1CCN(c2nc(=O)n(-c3c(C)ccnc3C(C)C)c3nc(-c4ccccc4F)c(F)cc23)[C@@H](C)C1 (single isomer, unassigned) [Example 58-4-1]", "Coupled exchange IC50 (5 min)", "0.212 | nda μM"],
  ["C=CC(=O)N1CCN(c2nc(=O)n(-c3c(C)cccc3C3CC3)c3nc(-c4c(O)cccc4F)c(Cl)cc23)[C@@H](C)C1 (single isomer, unassigned) [Example 55-15-1]", "Coupled exchange IC50 (5 min)", "0.169 | nda μM"]
]}

---

- SYSTEM_NAME: GDP-bound KRAS protein (aa 1-169), containing both G12C and C118A amino acid substitutions (Homo sapiens, UniProt P01116, C118A/G12C)
- ASSAY_REMARKS: Coupled nucleotide exchange assay (SOS-mediated, AlphaScreen)
- Assay type: biochemical
- EXPERIMENTAL_CONDITIONS: 5 min compound pre-incubation
Listing of entries alongside the reported Coupled exchange IC50 (5 min).
ENDPOINT: Coupled exchange IC50 (5 min)

{"columns": ["COMPOUND", "RESULT"],
 "data": [
  ["C=CC(=O)N1CCN(c2nc(=O)n(-c3c(C)cccc3C(C)C)c3nc(-c4c(C)ccc5[nH]ncc45)c(F)cc23)[C@@H](C)C1 (single isomer, unassigned) [Example 68-2-1]", "5.29 | nda μM"],
  ["C=CC(=O)N1C[C@H](C)N(c2nc(=O)n(-c3c(C)cccc3C(C)C)c3nc(-c4c(O)cccc4F)c(F)cc23)[C@@H](C)C1 (single isomer, unassigned) [Example 63-3]", "0.059 | nda μM"],
  ["C=CC(=O)N1CCN(c2nc(=O)n(-c3c(C)cccc3C3CC3)c3nc(-c4ccccc4F)c(Cl)cc23)[C@@H](C)C1 (single isomer, unassigned) [Example 56-5-1]", "0.154 | nda μM"],
  ["C=CC(=O)N1CCN(c2nc(=O)n(C(CC)CC)c3nc(-c4c(C)ccc5[nH]ncc45)c(Cl)cc23)[C@@H](C)C1 [Example 60-32]", "0.392 µM"],
  ["C=CC(=O)N1C[C@H](C)N(c2nc(=O)n(-c3c(C(C)C)ncnc3C(C)C)c3nc(-c4ccccc4F)c(Cl)cc23)[C@@H](C)C1 [Example 87-1]", "0.034 | nda μM"]
]}

---

Listing of entries alongside the reported Coupled exchange IC50 (5 min).
- SYSTEM_NAME: GDP-bound KRAS protein (aa 1-169), containing both G12C and C118A amino acid substitutions (Homo sapiens, UniProt P01116, C118A/G12C)
- ASSAY_REMARKS: Coupled nucleotide exchange assay (SOS-mediated, AlphaScreen)
- Assay type: biochemical
- EXPERIMENTAL_CONDITIONS: 5 min compound pre-incubation
ENDPOINT: Coupled exchange IC50 (5 min)

{"columns": ["MOLECULE", "ENDPOINT", "RESULT"],
 "data": [
  ["C=CC(=O)N1CCN(c2nc(=O)n(-c3ccccc3C(C)C)c3nc(-c4cc(O)ccc4Br)c(Cl)cc23)[C@@H](C)C1", "Coupled exchange IC50 (5 min)", "0.109 | nda μM"],
  ["C=CC(=O)N1CCN(c2nc(=O)n(-c3c(C)cccc3C(C)C)c3nc(-c4nc(N)ccc4Cl)c(F)cc23)[C@@H](C)C1 [Example 71-1]", "Coupled exchange IC50 (5 min)", "1.12 | nda μM"],
  ["C=CC(=O)N1CCN(c2nc(=O)n(-c3c(C)ccnc3C(C)C)c3nc(-c4ccccc4F)c(Cl)cc23)[C@H](C(F)F)C1 (single isomer, unassigned) [Example 78-3]", "Coupled exchange IC50 (5 min)", "0.141 | nda μM"],
  ["C=CC(=O)N1CCN(c2cc(=O)n(CC(C)(C)C)c3nc(-c4ccccc4F)ccc23)CC1", "Coupled exchange IC50 (5 min)", "38.6 | nda μM"],
  ["C=CC(=O)N1CCN(c2nc(=O)n(-c3c(C)cccc3C(C)C)c3nc(-c4ccccc4F)c(C)cc23)[C@@H](C)C1 (single isomer, unassigned) [Example 102-2]", "Coupled exchange IC50 (5 min)", "0.182 | nda μM"],
  ["C=CC(=O)N1CCN(c2nc(=O)n(-c3c(C)ccnc3C(C)C)c3nc(-c4ccccc4F)c(Cl)nc23)[C@@H](C)C1 (single isomer, unassigned) [Example 111-1]", "Coupled exchange IC50 (5 min)", "0.076 | nda μM"]
]}
